Molecular target: Type-1 angiotensin II receptor (Bos taurus, UniProt P25104)
Sequence (P25104 whole entry): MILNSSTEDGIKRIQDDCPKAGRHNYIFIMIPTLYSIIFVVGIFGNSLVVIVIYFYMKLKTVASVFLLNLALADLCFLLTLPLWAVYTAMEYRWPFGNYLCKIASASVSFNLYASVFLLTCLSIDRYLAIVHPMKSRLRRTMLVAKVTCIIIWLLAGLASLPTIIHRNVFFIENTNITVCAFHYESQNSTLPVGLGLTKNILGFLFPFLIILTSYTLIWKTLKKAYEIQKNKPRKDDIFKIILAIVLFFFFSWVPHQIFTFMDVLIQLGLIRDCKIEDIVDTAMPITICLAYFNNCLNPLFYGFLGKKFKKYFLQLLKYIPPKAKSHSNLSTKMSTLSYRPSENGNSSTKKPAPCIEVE
pIC50: −log10 of the molar value.
Rule: T for pIC50 not less than 6, F for anything less.

Exam item: Say whether CCCc1nc(C(=O)O)c(C(=O)O)n1Cc1ccc(-c2ccccc2C(=O)O)cc1 shows pIC50 of 6 or more.
Marked response: T

Exam item: Say whether CCCc1nc(CO)c(C(=O)O)n1Cc1ccc(-c2ccccc2C(=O)O)cc1 shows pIC50 of 6 or more.
Marked response: T

Exam item: Say whether CCCc1nc(CO)c(CO)n1Cc1ccc(-c2ccccc2C(=O)O)cc1 shows pIC50 of 6 or more.
Marked response: F

Exam item: Say whether CCCc1cc(COC)c(C(=O)O)n1Cc1ccc(-c2ccccc2C(=O)O)cc1 shows pIC50 of 6 or more.
Marked response: F

Exam item: Say whether CCCCc1nc(Cl)c(C(=O)O)n1Cc1ccc(-c2ccccc2-c2nn[nH]n2)cc1 [CARBOXYLIC ACID METABOLITE] shows pIC50 of 6 or more.
Marked response: T

Exam item: Say whether CCc1nc(CO)c(C(=O)O)n1Cc1ccc(-c2ccccc2C(=O)O)cc1 shows pIC50 of 6 or more.
Marked response: T
